# Species on record: Rattus norvegicus
# METHOD_SUMMARY: DrugMatrix - Regimen: Daily Repeat
# Assay type: toxicity, organism-based, Sprague-Dawley
# Parameters: regimen Daily Repeat, gender Male, age 6-8 weeks
# TEST_CONDITIONS: in vivo, po, 0 mg/kg, 72 h, tissue Plasma, route oral GAVAGE, dose level Control, time 3 day, […]
Below is a list of entries, each paired with its recorded SODIUM value.

SMILES: COc1ncnc(NS(=O)(=O)c2ccc(N)cc2)c1OC
SODIUM, MEQ/L: 142.48
//
SMILES: OCCN1CCN(CCCN2c3ccccc3Sc3ccc(C(F)(F)F)cc32)CC1
SODIUM, MEQ/L: 144.12
//
SMILES: NC[C@@H]1O[C@H](O[C@H]2[C@@H](O)[C@H](O[C@@H]3[C@@H](O)[C@H](N)C[C@H](N)[C@H]3O[C@H]3O[C@H](CN)[C@@H](O)[C@H](O)[C@H]3N)O[C@@H]2CO)[C@H](N)[C@@H](O)[C@@H]1O
SODIUM, MEQ/L: 143.02

---

# Organism: Rattus norvegicus
# METHOD_SUMMARY: DrugMatrix - Regimen: Daily Repeat
# Format: toxicity, organism-based, Sprague-Dawley
# Design: regimen Daily Repeat, gender Male, age 6-8 weeks
# TEST_CONDITIONS: in vivo, po, 0 mg/kg, 120 h, tissue Blood, route oral GAVAGE, dose level Control, time 5 day, vehicle .5 % CMC
Below is a list of entries, each paired with its recorded ERYTHROCYTE COUNT value.

COMPOUND: CN1C(=O)CN=C(c2ccccc2)c2cc(Cl)ccc21 [DIAZEPAM]
ERYTHROCYTE COUNT / x10E6/uL: 5.71
--
COMPOUND: Cc1cnc(C(=O)NCCc2ccc(S(=O)(=O)NC(=O)NC3CCCCC3)cc2)cn1 [GLIPIZIDE]
ERYTHROCYTE COUNT / x10E6/uL: 5.32
--
COMPOUND: CCCCC1C(=O)N(c2ccccc2)N(c2ccccc2)C1=O [PHENYLBUTAZONE]
ERYTHROCYTE COUNT / x10E6/uL: 5.65
--
COMPOUND: CC[C@]1(O)CC[C@H]2[C@@H]3CCC4=CCCC[C@@H]4[C@H]3CC[C@@]21C
ERYTHROCYTE COUNT / x10E6/uL: 6.99
--
COMPOUND: C=C(CC)C(=O)c1ccc(OCC(=O)O)c(Cl)c1Cl [ETHACRYNIC ACID]
ERYTHROCYTE COUNT / x10E6/uL: 6.72
--
COMPOUND: CC(C(=O)O)c1ccc(-c2ccccc2)c(F)c1 (stereo not drawn) [FLURBIPROFEN]
ERYTHROCYTE COUNT / x10E6/uL: 5.78
--
COMPOUND: CO[C@H]1C[C@@H]2CC[C@@H](C)[C@@](O)(O2)C(=O)C(=O)N2CCCC[C@H]2C(=O)O[C@H]([C@H](C)C[C@@H]2CC[C@@H](O)[C@H](OC)C2)CC(=O)[C@H](C)/C=C(\C)[C@@H](O)[C@@H](OC)C(=O)[C@H](C)C[C@H](C)/C=C/C=C/C=C/1C [SIROLIMUS]
ERYTHROCYTE COUNT / x10E6/uL: 5.79
--
COMPOUND: Nc1cccc(Cl)c1 [3-CHLOROANILINE]
ERYTHROCYTE COUNT / x10E6/uL: 6.69
